System: microbiota present in the faecal samples
Assay Protocol: Faecal fermentation, distribution of oligosaccharides (HPAEC-PAD peak areas)
Details: Example 2 sample, 24 h, Donor C
Text: HPAEC-PAD (high performance anion exchange chromatography) equipped with a PA-1 column was used for separation of mono- and oligosaccharides of the different samples. […] The samples as used for GPC were 100-fold diluted with DMSO before injection. The distribution of oligosaccharides in the mixtures was also monitored over this time period using the method described above in relation to Table 2.
Parameter Measured: Peak areas

Past entries and their recorded results:
INSERT INTO assay_data (molecule, observed_value) VALUES
  ('OC[C@H]1O[C@@H](OC[C@H]2OC(O)[C@H](O)[C@@H](O)[C@@H]2O)[C@H](O)[C@@H](O)[C@H]1O (stereo partly shown) [Allolactos, Allolactose]', 0.0),
  ('OC[C@H]1O[C@@H](O[C@H]2[C@@H](O)[C@@H](CO)O[C@@H](O[C@H]3[C@@H](O)[C@@H](CO)O[C@@H](O[C@H]4[C@H](O)[C@@H](O)C(O)O[C@@H]4CO)[C@@H]3O)[C@@H]2O)[C@H](O)[C@@H](O)[C@H]1O (stereo partly shown) [Cpd. ID 31]', 0.0);

[P] O=C[C@H](O)[C@@H](O)[C@@H](O)[C@H](O)CO [Galactose]
[Q] OC[C@H]1O[C@@H](O[C@H]2[C@@H](O)[C@@H](CO)O[C@@H](O[C@H]3[C@H](O)[C@@H](O)C(O)O[C@@H]3CO)[C@@H]2O)[C@H](O)[C@@H](O)[C@H]1O (stereo partly drawn) [Cpd. ID 12, D-Gal-(β1-3)-D-Gal-(β1-4)-D-Glu]
Lower Peak areas: P or Q ? The response must carry the label of the picked entry.
P
